tgt: Fn14-TWEAK binding (Homo sapiens, UniProt Q9NP84)
Construct: the human Fc fragment-tagged Fn14 extracellular domain (R&D Systems) was captured; purchased R&D Systems (Fn14-Fc); Peprotech (recombinant TWEAK)
method description: Double sandwich ELISA small molecule screening of TWEAK binding to captured Fn14-Fc
assay context: Table 5, 25 μM, replicate 2; read-out: % Reduction in TWEAK Binding, Data 2
Below, each of the molecules is paired with its reported inhibition at 25 µM value.
Could you give me the number in %? Just the number is fine.

Look over these answered cases.
O=C(CSc1nnc(-c2ccccc2)c(-c2ccccc2)n1)Nc1ccc(S(=O)(=O)Nc2nccs2)cc1    12.2
O=C(c1cn(-c2cccc(Cl)c2)nn1)N1CCCC1    6.27
CCC(=O)Nc1ccccc1-c1ccccc1NC(=O)CC    18
O=C(NCc1ccncc1)C1CCCN(c2nc3c(-c4ccccc4)csc3c(=O)[nH]2)C1 (stereo not drawn)    15.2
O=C(CSc1nnc(-c2ccccc2)c(-c2ccccc2)n1)Nc1ccccc1    11.3
COC(=O)[C@H]1Cc2c([nH]c3ccccc23)CN1    13.6
O=C1CN(C(=O)CSc2ccccc2)c2ccccc2N1    18.5
O=C(CSc1cccc2cccnc12)Nc1ccc2ccccc2c1    6.85

Give its inhibition at 25 µM value. Item: Cc1ccc(-c2csc3c(=O)[nH]c(N4CCCC(C(N)=O)C4)nc23)cc1 (stereo not drawn)
9.99

* * *

tgt: Fn14-TWEAK binding (Homo sapiens, UniProt Q9NP84)
Construct: the human Fc fragment-tagged Fn14 extracellular domain (R&D Systems) was captured; purchased R&D Systems (Fn14-Fc); Peprotech (recombinant TWEAK)
Sequence (Q9NP84 28-80 limits assumed): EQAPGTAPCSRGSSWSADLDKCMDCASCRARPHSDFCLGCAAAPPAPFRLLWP
method description: Double sandwich ELISA small molecule screening of TWEAK binding to captured Fn14-Fc
assay context: Table 3, first round of screening, 25 μM, replicate 2; read-out: % Reduction in TWEAK Binding, Data 2
Below, each of the molecules is paired with its reported inhibition at 25 µM value.
Could you give me the number in %? Just the number is fine.

Look over these answered cases.
CCC(=O)Nc1ccccc1-c1nnc(SCC(=O)Nc2cc(C)ccc2C)[nH]c1=O    11.5
Cc1ccc(-c2csc3c(=O)[nH]c(N4CCCC(C(N)=O)C4)nc23)cc1 (centres unmarked)    9.99
O=C(O)C[C@@H]1NC(=O)c2ccccc2NC1=O    14.7
CCC(=O)Nc1ccccc1-c1nnc(SC(CC)C(=O)Nc2cccc(OC)c2)[nH]c1=O (centres unmarked)    14.2
COC(=O)[C@H]1Cc2c([nH]c3ccccc23)CN1    13.6
O=C(CSc1nc2c(cnn2-c2ccccc2)c(=O)[nH]1)NCc1ccc2c(c1)OCO2    14.5
O=C(NCc1ccc(F)cc1)C(=O)NCc1n[nH]c(=O)c2ccccc12    10.4
CCC(=O)Nc1ccccc1-c1nnc(SC(CC)C(=O)Nc2cc(OC)cc(OC)c2)[nH]c1=O (centres unmarked)    12.2

Give its inhibition at 25 µM value. Item: CCC(=O)Nc1ccccc1-c1nnc(SC(C)C(=O)Nc2cccc(Cl)c2C)[nH]c1=O (centres unmarked)
13

Give its inhibition at 25 µM value. Item: `CC(C)NC(=O)C(=O)NCc1n[nH]c(=O)c2ccccc12`
14.7

Give its inhibition at 25 µM value. Item: NC(=O)C1CCCN(c2nc3c(-c4ccccc4)csc3c(=O)[nH]2)C1 (centres unmarked)
7.41

Give its inhibition at 25 µM value. Item: COc1ccc(C2N[C@H](C(=O)O)Cc3c2[nH]c2ccccc32)cc1O (some centres unmarked)
19.6

Give its inhibition at 25 µM value. Item: `O=C(NCc1cccnc1)C(=O)NCc1n[nH]c(=O)c2ccccc12`
10.8

Give its inhibition at 25 µM value. Item: `O=C(NCc1ccccc1Cl)C(=O)NCc1n[nH]c(=O)c2ccccc12`
13.2

* * *

tgt: Fn14-TWEAK binding (Homo sapiens, UniProt Q9NP84)
Construct: the human Fc fragment-tagged Fn14 extracellular domain (R&D Systems) was captured; purchased R&D Systems (Fn14-Fc); Peprotech (recombinant TWEAK)
method description: Double sandwich ELISA small molecule screening of TWEAK binding to captured Fn14-Fc
assay context: Table 3, first round of screening, 25 μM, average of duplicate; read-out: % Reduction in TWEAK Binding, Average
Protocol: Double Sandwich ELISA. sTWEAK and sTWEAK variant proteins were synthesized as described above. The expression level of each IVTT synthesized sTWEAK protein was analyzed by western blot analysis and used in approximately equal amounts in the ELISA. […] Following incubation for additional 2 hr at room temperature, wells were washed 3× with DPBS containing 0.05% Tween-20 and bound biotinylated TWEAK antibody was detected by incubation with an HRP-conjugated streptavidin. […]
Below, each of the compounds is paired with its reported inhibition at 25 µM value.
Could you give me the number in %? Just the number is fine.

O=C(NCc1ccc(F)cc1)C(=O)NCc1n[nH]c(=O)c2ccccc12    11.5
Cc1cc(C)n(CC(=O)NCCc2c[nH]c3ccccc23)n1    15.3
COc1ccccc1NC(=O)Cc1csc(NC(=O)Nc2ccccc2)n1    10.4

Give its inhibition at 25 µM value. Item: `CC(C)NC(=O)C(=O)NCc1n[nH]c(=O)c2ccccc12`
13.7

Give its inhibition at 25 µM value. Item: COc1ccc(C2N[C@H](C(=O)O)Cc3c2[nH]c2ccccc32)cc1O (some centres unmarked)
10.3

* * *

Below, each of the compounds is paired with its reported inhibition at 25 µM value.
tgt: Fn14-TWEAK binding (Homo sapiens)
Construct: the human Fc fragment-tagged Fn14 extracellular domain (R&D Systems) was captured; purchased R&D Systems (Fn14-Fc); Peprotech (recombinant TWEAK)
method description: Double sandwich ELISA small molecule screening of TWEAK binding to captured Fn14-Fc
assay context: Table 4, second screening iteration, 25 μM, replicate 2; read-out: % Reduction in TWEAK Binding, Data 2

O=C(c1cn(-c2cccc(Cl)c2)nn1)N1CCCC1    6.27%
O=C(NCc1n[nH]c(=O)c2ccccc12)C(=O)N1CCCCCC1    23.2%

Give its inhibition at 25 µM value. Item: `Cc1cccc(-n2c(=O)c3[nH]c4ccccc4sc=3c2=O)c1`
37.8%

Give its inhibition at 25 µM value. Item: `O=C(CSc1ccccc1)Nc1cccc2nsnc12`
13.7%

Give its inhibition at 25 µM value. Item: `O=C(NCc1ccccc1Cl)C(=O)NCc1n[nH]c(=O)c2ccccc12`
5.55%

Give its inhibition at 25 µM value. Item: `COc1ccc(-c2nnc(SCC(=O)Nc3ccccc3OC)nc2-c2ccc(OC)cc2)cc1`
29.8%

Give its inhibition at 25 µM value. Item: `O=C1CN(C(=O)CSc2ccccc2)c2ccccc2N1`
18.5%

Give its inhibition at 25 µM value. Item: `COc1ccc(-c2nnc(SCC(=O)Nc3cccc4ccccc34)nc2-c2ccccc2)cc1`
12.7%

Give its inhibition at 25 µM value. Item: `Nc1ccccc1SCC(=O)Nc1cccc2nsnc12`
21.2%

* * *

tgt: Fn14-TWEAK binding (Homo sapiens)
Construct: the human Fc fragment-tagged Fn14 extracellular domain (R&D Systems) was captured; purchased R&D Systems (Fn14-Fc); Peprotech (recombinant TWEAK)
method description: Double sandwich ELISA small molecule screening of TWEAK binding to captured Fn14-Fc
assay context: Table 3, first round of screening, 25 μM, average of duplicate; read-out: % Reduction in TWEAK Binding, Average
Below, each of the compounds is paired with its reported inhibition at 25 µM value.
Could you give me the number in %? Just the number is fine.

Give its inhibition at 25 µM value. Item: CCC(=O)Nc1ccccc1-c1nnc(SC(C)C(=O)Nc2cccc(Cl)c2C)[nH]c1=O (centres unmarked)
10.9

* * *

tgt: Fn14-TWEAK binding (Homo sapiens)
Construct: the human Fc fragment-tagged Fn14 extracellular domain (R&D Systems) was captured; purchased R&D Systems (Fn14-Fc); Peprotech (recombinant TWEAK)
Sequence (Q9NP84 28-80 limits assumed): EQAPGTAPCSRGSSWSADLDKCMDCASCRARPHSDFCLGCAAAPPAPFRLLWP
method description: Double sandwich ELISA small molecule screening of TWEAK binding to captured Fn14-Fc
assay context: Table 5, 25 μM, replicate 2; read-out: % Reduction in TWEAK Binding, Data 2
reported endpoint: inhibition at 25 µM (%)
Could you give me the number in %? Just the number is fine.

COc1ccc(-c2nnc(SCC(=O)Nc3cccc4ccccc34)nc2-c2ccccc2)cc1    12.7
CCCC(=O)Nc1ccccc1-c1nnc(SC)nc1O    20.9
Nc1ccccc1SCC(=O)Nc1cccc2nsnc12    21.2

// switching to the query compound
Give its inhibition at 25 µM value. Item: CCC(=O)Nc1ccccc1-c1nnc(SC(C)C(=O)Nc2cccc(Cl)c2C)[nH]c1=O (stereo not shown)
13
